Target: human CYP8B1 (Homo sapiens)
Sequence (Q9UNU6 26-501 limits assumed): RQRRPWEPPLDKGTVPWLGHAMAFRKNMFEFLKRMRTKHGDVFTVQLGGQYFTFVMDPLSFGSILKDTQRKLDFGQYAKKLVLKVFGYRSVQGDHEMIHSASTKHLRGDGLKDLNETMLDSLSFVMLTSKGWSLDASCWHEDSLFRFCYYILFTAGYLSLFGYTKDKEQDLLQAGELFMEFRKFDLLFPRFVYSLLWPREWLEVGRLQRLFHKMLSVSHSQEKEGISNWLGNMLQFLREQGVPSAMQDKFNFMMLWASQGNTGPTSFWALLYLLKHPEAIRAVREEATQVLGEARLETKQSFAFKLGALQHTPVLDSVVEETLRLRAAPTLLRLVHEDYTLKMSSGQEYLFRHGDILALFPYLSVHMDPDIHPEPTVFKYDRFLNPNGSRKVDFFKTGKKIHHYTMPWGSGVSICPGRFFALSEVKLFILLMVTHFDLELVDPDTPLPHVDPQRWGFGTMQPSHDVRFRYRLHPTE
Experiment: CYP8B1 inhibition assays
Type: biochemical
Conditions: activity remaining vs control without inhibitor, 80 μM inhibitor
Measure: Turnover at 80 μM (%)

Previously resolved entries follow.
molecule=OC(Cn1cncn1)(Cn1cncn1)c1ccc(F)cc1F measure="Turnover at 80 μM (%)" uom=% result=95
molecule="Clc1ccc(C(Cn2ccnc2)OCc2ccsc2Cl)c(Cl)c1 (stereo not shown)" measure="Turnover at 80 μM (%)" uom=% result=1.4

I: Clc1ccc(COC(Cn2ccnc2)c2ccc(Cl)cc2Cl)cc1 (stereo not shown)
II: Clc1cccc(C(c2ccc3[nH]cnc3c2)n2ccnc2)c1 (stereo not shown)
III: CC(=O)N1CCN(c2ccc(OCC3COC(Cn4ccnc4)(c4ccc(Cl)cc4Cl)O3)cc2)CC1 (stereo not shown)
IV: Clc1ccc(COC(Cn2ccnc2)c2ccc(Cl)cc2Cl)c(Cl)c1 (stereo not shown)
V: Clc1ccccc1C(c1ccccc1)(c1ccccc1)n1ccnc1
Qu. Sequence the entries by Turnover at 80 μM (%), beginning with the highest number. Provide the ranking by listing each label in its place in the requested order.
Ans. II, III, V, I, IV

---

biological target: human CYP8B1 (Homo sapiens, UniProt Q9UNU6); assay: Ligand-binding assay by shift of the heme Soret peak, wild type CYP8B1; details: KD, azoles, single site binding fit, interval in parentheses
Measure: Kd (µM)

molecule="Clc1ccc(COC(Cn2ccnc2)c2ccc(Cl)cc2Cl)cc1 (stereo not drawn) [Econazole]" result=0.057
molecule="Clc1cccc(C(c2ccc3[nH]cnc3c2)n2ccnc2)c1 (stereo not drawn) [Liarozole]" result=1.3
molecule="Clc1ccccc1C(c1ccccc1)(c1ccccc1)n1ccnc1 [Clotrimazole]" result=1.6

I: CC(=O)N1CCN(c2ccc(OCC3COC(Cn4ccnc4)(c4ccc(Cl)cc4Cl)O3)cc2)CC1 (stereo not drawn) [Ketoconazole]
II: Clc1ccc(C(Cn2ccnc2)OCc2ccsc2Cl)c(Cl)c1 (stereo not drawn) [Tioconazole]
III: Clc1ccc(COC(Cn2ccnc2)c2ccc(Cl)cc2Cl)c(Cl)c1 (stereo not drawn) [Miconazole]
Qu. Please order the records by their reported Kd, lowest number first. Provide the ranking by listing each label in its place in the requested order.
Ans. III, II, I

---

Molecular target: CYP8B1 W281F (Homo sapiens, UniProt Q9UNU6, W281F)
Sequence (Q9UNU6 26-501 W281F limits assumed): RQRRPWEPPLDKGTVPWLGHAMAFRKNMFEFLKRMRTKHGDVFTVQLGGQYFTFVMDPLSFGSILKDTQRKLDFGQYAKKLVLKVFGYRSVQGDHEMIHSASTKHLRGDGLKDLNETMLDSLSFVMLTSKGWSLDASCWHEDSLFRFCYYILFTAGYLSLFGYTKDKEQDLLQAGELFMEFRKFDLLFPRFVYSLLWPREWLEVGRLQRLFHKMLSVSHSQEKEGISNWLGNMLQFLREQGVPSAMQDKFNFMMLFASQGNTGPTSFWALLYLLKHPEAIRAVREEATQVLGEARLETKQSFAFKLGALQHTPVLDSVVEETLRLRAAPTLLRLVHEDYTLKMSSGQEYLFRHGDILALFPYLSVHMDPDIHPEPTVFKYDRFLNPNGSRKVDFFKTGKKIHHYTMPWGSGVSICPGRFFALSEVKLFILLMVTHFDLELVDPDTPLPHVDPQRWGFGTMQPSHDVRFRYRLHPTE
Test: Ligand-binding assay by shift of the heme Soret peak, CYP8B1 W281F mutant
Measure: pKd
Lab note: report pKd as minus log10 of the concentration in molar units, number only.

Qu. For the compound CC(C)CCC[C@@H](C)[C@H]1CC[C@H]2[C@@H]3[C@H](O)CC4=CC(=O)CC[C@]4(C)[C@H]3CC[C@]12C [7α-hydroxycholest-4-en-3-one] , what pKd is on record?
Ans. 7.46
